Where these numbers come from: PubChem BioAssay (NCI)

Tested on: HCT-15 colon
protocol.text: NCI tumour cell line growth inhibition, 48 h
measurement.name: TGI

molecule	measurement.name	test.result
C[N+]12CCCCC1C(CN1C(=O)c3ccccc3C1=O)CCC2 (stereo unspecified)	TGI	> 100 µM
CC(=O)Nc1nnc(S(=O)(=O)NC(=S)Nc2ccc(Cl)cc2)s1	TGI	> 100 µM
O=c1c(Sc2ncccn2)c(Sc2ncccn2)cnn1CCl	TGI	11.8 µM
O=C(CC(=O)c1ccccc1)C(=O)NC12CC3CC(CC(C3)C1)C2	TGI	> 54.3 µM
CCC(=O)c1c(C(F)(F)F)n([O-])c2ccccc2[n+]1=O	TGI	4.88 µM
COc1ccccc1Cn1[nH]c(=O)c2cc([N+](=O)[O-])ccc21	TGI	> 100 µM

GET TGI where system = HCT-15 colon and item = `Cc1cc(-c2ccc(C(=O)C(c3ccccc3)(c3ccccc3)c3ccccc3)[nH]2)on1` 41.6 µM

GET TGI where system = HCT-15 colon and item = `CCOC(=O)C(=O)Nc1cccc(C)c1C` > 100 µM

GET TGI where system = HCT-15 colon and item = `CCCc1cc(-c2ccc(-c3cc(CCC)c(C=O)[nH]3)s2)[nH]c1C=O` > 100 µM

GET TGI where system = HCT-15 colon and item = `NCCC1([N+](=O)[O-])CCNCC1` > 100 µM

GET TGI where system = HCT-15 colon and item = `COc1ccc(CN=C(N)N=C(N)N)cc1OC` > 1000 µM

====

Test system: U251 CNS
protocol.text: NCI tumour cell line growth inhibition, 48 h
The compounds listed here are annotated with their TGI.

// worked examples, TGI included
compound	study.system	TGI
COc1cc2c(cc1OCCCCN1CCN(CCCCOc3cc4c(cc3OC)C(=O)N3CCC[C@H]3C=N4)CC1)N=C[C@@H]1CCCN1C2=O	U251 CNS	> 100 µM
CCOC(=O)c1ccc(Nc2cnc3ccc(C(F)(F)F)cc3n2)cc1	U251 CNS	31.8 µM
N#CCN(Cc1ccccc1)[C@@H]1CCC[C@]1(O)C#Cc1ccc2c(c1)OCO2	U251 CNS	33.9 µM

Note TGI for the compound shown: `Oc1ccccc1-n1nc2ccc3nonc3c2n1` > 100 µM

Note TGI for the compound shown: `C=C1C(=O)O[C@H]2[C@H]1CC/C(CNC(=O)/C=C/c1ccc(Cl)cc1Cl)=C\CC[C@@]1(C)O[C@@H]21` 3.14 µM

Note TGI for the compound shown: C=C(C)C(=O)O[C@H]1CC2=CC(CC(C)=C[C@H]3OC(=O)C(=C)C13)OC2=O (stereo partly specified) > 100 µM

Note TGI for the compound shown: `CCc1n[nH]c(=S)n1/N=C\c1ccc(-c2ccccc2[N+](=O)[O-])o1` > 100 µM

Note TGI for the compound shown: `Cc1cn2c(/C=C3/C(=O)Nc4ccccc43)c(C)nc2s1` 10.9 µM

Note TGI for the compound shown: `Cc1nc(Nc2nc3ccccc3[nH]2)[nH]c(=O)c1CCO` > 100 µM

Note TGI for the compound shown: `O=S(=O)(N/N=C/c1ccc(Cl)cc1Cl)c1ccccc1` > 100 µM

Note TGI for the compound shown: `O=C(O)c1cc(=O)c2cc(C(=O)c3cccs3)c(Cl)c(Cl)c2o1` > 100 µM

Note TGI for the compound shown: `CN(C)C(=O)Oc1ccc(C(=S)Nc2ccccc2)cc1Br` > 100 µM

Note TGI for the compound shown: `CN(CCO)/N=N/c1nc[nH]c1C(N)=O` > 100 µM

Note TGI for the compound shown: `Cc1c(C(N)=O)sc2c1c(=O)n(Cc1ccccc1)c1nnc(S(=O)(=O)CC(=O)Nc3ccc(Cl)cc3)n21` 4.25 µM

Note TGI for the compound shown: `Cc1ccc(N2C(=O)C(=O)N(/N=C3\C(=O)Nc4ccccc43)C2=S)cc1` > 100 µM

Note TGI for the compound shown: COC(=O)C1=C(c2ccc(Cl)cc2)C(O)N=C(NN)N1 (stereo unspecified) > 100 µM

Note TGI for the compound shown: CC(C)c1cccc(C(C)C)c1NC(=O)C(=O)C1SC(=S)NC1=O (stereo unspecified) > 100 µM

Note TGI for the compound shown: `O=C1C(NS(=O)(=O)c2ccccc2)=C(N(Cc2ccccc2)Cc2ccccc2)C(=O)c2ccccc21` > 100 µM

Note TGI for the compound shown: O=C1c2c(ccc3c2CCCC3)CC1Cc1ccc2c(c1)CCCC2 (stereo unspecified) > 100 µM

Note TGI for the compound shown: `Cc1ccc(Nc2nc(C)c(C(/C=C/c3ccc4c(c3)OCO4)=N/Nc3ccc([N+](=O)[O-])cc3[N+](=O)[O-])s2)c([N+](=O)[O-])c1` > 100 µM

Note TGI for the compound shown: `CCOC(=O)/C(=N/Nc1ccc(Cl)cc1)N1C(=S)C=C(C)NN(C)C1=S` 39.5 µM

Note TGI for the compound shown: OC1c2ccccc2C2C(O)c3ccccc3C12 (stereo unspecified) > 100 µM
